All figures here come from patent US7273846B2.

Study system: MCH-1R (Homo sapiens, UniProt Q99705)
Sequence (Q99705 whole entry): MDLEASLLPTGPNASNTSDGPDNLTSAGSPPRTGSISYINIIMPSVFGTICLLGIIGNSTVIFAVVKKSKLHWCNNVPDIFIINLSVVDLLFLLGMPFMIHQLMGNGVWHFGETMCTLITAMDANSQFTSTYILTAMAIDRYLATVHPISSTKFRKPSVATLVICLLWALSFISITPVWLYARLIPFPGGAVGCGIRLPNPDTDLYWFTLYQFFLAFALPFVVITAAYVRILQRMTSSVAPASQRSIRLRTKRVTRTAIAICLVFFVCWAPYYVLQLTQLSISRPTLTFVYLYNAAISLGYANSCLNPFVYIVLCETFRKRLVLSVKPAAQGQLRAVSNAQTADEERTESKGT
Reported conditions: binding ratio
Residues, ends and D or L forms follow the SMILES beside them.
Listed molecules paired with reported Selectivity 2/1 (MCH-2R/MCH-1R IC50 binding ratio)
Form: value (number only, do not type unit).

Example entries begin here.
CSCC[C@@H]1NC(=O)[C@@H](NC(=O)[C@H](CCCNC(=N)N)NC(C)=O)CSSC[C@@H](C(N)=O)NC(=O)[C@@H]2CCCN2C(=O)[C@H](CCCNC(=N)N)NC(=O)[C@H](Cc2ccc(O)cc2)NC(=O)[C@H](C(C)C)NC(=O)[C@H](CCCNC(=N)N)NC(=O)[C@H](CO)NC(=O)[C@H](CC(C)C)NC1=O [SEQ. ID. NO. 26] (HELM PEPTIDE1{[ac].R.C.M.L.S.R.V.Y.R.P.C.[am]}$PEPTIDE1,PEPTIDE1,3:R3-12:R3$$$V2.0) :: 100
CSCC[C@@H]1NC(=O)[C@@H](NC(=O)[C@@H](CCCNC(N)=O)NC(C)=O)CSSC[C@@H](C(N)=O)NC(=O)[C@@H]2CCCN2C(=O)[C@H](CCCNC(=N)N)NC(=O)[C@H](Cc2ccc(O)cc2)NC(=O)[C@H](C(C)C)NC(=O)[C@H](CCCNC(=N)N)NC(=O)CNC(=O)[C@H](CC(C)C)NC1=O :: 43
CCCC[C@@H]1NC(=O)[C@@H](NC(=O)[C@@H](CCCNC(=N)N)NC(C)=O)CSSC[C@@H](C(N)=O)NC(=O)[C@@H]2CCCN2C(=O)[C@H](CCCNC(=N)N)NC(=O)[C@H](Cc2ccc(O)cc2)NC(=O)[C@H](C(C)C)NC(=O)[C@H](CCCNC(=N)N)NC(=O)[C@H](CC(N)=O)NC(=O)[C@H](CC(C)C)NC1=O [SEQ. ID. NO. 31] (HELM PEPTIDE1{[ac].[dR].C.[Nle].L.N.R.V.Y.R.P.C.[am]}$PEPTIDE1,PEPTIDE1,3:R3-12:R3$$$V2.0) :: 5700
CSCC[C@@H]1NC(=O)CCSSC[C@@H](C(N)=O)NC(=O)[C@@H]2CCCN2C(=O)[C@H](CCCNC(=N)N)NC(=O)[C@H](Cc2ccc(O)cc2)NC(=O)[C@H](C(C)C)NC(=O)[C@H](CCCNC(=N)N)NC(=O)CNC(=O)[C@H](CC(C)C)NC1=O :: 500

In the following, a different molecule is considered.
Input line: So what does the record say about Selectivity 2/1 (MCH-2R/MCH-1R IC50 binding ratio) for CSCC[C@@H]1NC(=O)[C@@H](NC(=O)[C@H](CCCNC(=N)N)NC(C)=O)CSSC[C@@H](C(N)=O)NC(=O)[C@@H]2CCCN2C(=O)[C@H](CCCNC(=N)N)NC(=O)[C@H](Cc2ccc(O)cc2)NC(=O)[C@H](C(C)C)NC(=O)[C@H](CCCNC(=N)N)NC(=O)[C@H](CC(N)=O)NC(=O)[C@H](CC(C)C)NC1=O [SEQ. ID. NO. 25] (HELM PEPTIDE1{[ac].R.C.M.L.N.R.V.Y.R.P.C.[am]}$PEPTIDE1,PEPTIDE1,3:R3-12:R3$$$V2.0) ?
Output line: 1800

---

Study system: UniProt:Q99705
Procedure text: Aequorin bioluminescence functional assay, 293AEQ17/MCH-1R cells
Assay type: cell-based
Set-up: expressed in transfected cells
Reported conditions: human MCH = 100; activation at 10 μM concentration
Quantity: MCH-1R Activation % (%)
Kindly answer with a numeric value in %, unit omitted.

CSCC[C@@H]1NC(=O)[C@@H](NC(=O)[C@@H](CCCNC(N)=O)NC(C)=O)CSSC[C@@H](C(N)=O)NC(=O)[C@@H]2CCCN2C(=O)[C@H](CCCNC(=N)N)NC(=O)[C@H](Cc2ccc(O)cc2)NC(=O)[C@H](C(C)C)NC(=O)[C@H](CCCNC(=N)N)NC(=O)CNC(=O)[C@H](CC(C)C)NC1=O :: 91

In the following, a different compound is considered.
Input line: So what does the record say about MCH-1R Activation % for `CSCC[C@@H]1NC(=O)[C@@H](NC(=O)[C@H](N)CCCNC(=N)N)CSSC[C@@H](C(N)=O)NC(=O)[C@@H]2CCCN2C(=O)[C@H](CCCNC(=N)N)NC(=O)[C@H](Cc2ccc(O)cc2)NC(=O)[C@H](C(C)C)NC(=O)[C@H](CCCNC(=N)N)NC(=O)CNC(=O)[C@H](CC(C)C)NC1=O` ?
Output line: 130

---

Study system: MCH-1R (Homo sapiens, UniProt Q99705)
Procedure text: Aequorin bioluminescence functional assay, 293AEQ17/MCH-1R cells
Format: cell-based
Set-up: expressed in transfected cells
Reported conditions: aequorin, 293AEQ17/MCH-1R cells; read-out: MCH-1R EC50
Listed molecules paired with reported EC50
Kindly answer with a numeric value in µM, unit omitted.

CSCC[C@@H]1NC(=O)[C@@H](NC(=O)[C@H](CCCNC(=N)N)NC(C)=O)CSSC[C@@H](C(N)=O)NC(=O)[C@@H]2CCCN2C(=O)[C@H](CCCNC(=N)N)NC(=O)[C@H](Cc2ccc(O)cc2)NC(=O)[C@H](C(C)C)NC(=O)[C@H](CCCNC(=N)N)NC(=O)[C@H](CCCNC(N)=O)NC(=O)[C@H](CC(C)C)NC1=O :: 0.92

Input line: So what does the record say about EC50 for `CSCC[C@@H]1NC(=O)[C@@H](NC(=O)[C@@H](C)NC(C)=O)CSSC[C@@H](C(N)=O)NC(=O)[C@@H]2CCCN2C(=O)[C@H](CCCNC(=N)N)NC(=O)[C@H](Cc2ccc(O)cc2)NC(=O)[C@H](C(C)C)NC(=O)[C@H](CCCNC(=N)N)NC(=O)CNC(=O)[C@H](CC(C)C)NC1=O` ?
Output line: 0.16

---

Listed compounds paired with reported MCH-1R Activation %
Study system: MCH-1R (Homo sapiens, UniProt Q99705)
Procedure text: Aequorin bioluminescence functional assay, 293AEQ17/MCH-1R cells
Type: cell-based
Parameters: expressed in transfected cells
Reported conditions: human MCH = 100; activation at 10 μM concentration
Give the figure together with its unit, number first.

CSCC[C@@H]1NC(=O)[C@@H](NC(=O)[C@H](CCCNC(=N)N)NC(C)=O)CSSC[C@@H](C(N)=O)NC(=O)[C@@H]2CCCN2C(=O)[C@H](CCCNC(=N)N)NC(=O)[C@H](Cc2ccc(O)cc2)NC(=O)[C@H](C(C)C)NC(=O)[C@H](CCCNC(=N)N)NC(=O)[C@H](Cc2ccc3ccccc3c2)NC(=O)[C@H](CC(C)C)NC1=O :: 7%

In the following, a different compound is considered.
Input line: So what does the record say about MCH-1R Activation % for `CSCC[C@@H]1NC(=O)[C@@H](NC(=O)[C@@H](CCCCN)NC(C)=O)CSSC[C@@H](C(N)=O)NC(=O)[C@@H]2CCCN2C(=O)[C@H](CCCNC(=N)N)NC(=O)[C@H](Cc2ccc(O)cc2)NC(=O)[C@H](C(C)C)NC(=O)[C@H](CCCNC(=N)N)NC(=O)CNC(=O)[C@H](CC(C)C)NC1=O` ?
Output line: 130%

---

Listed molecules paired with reported MCH-2R Activation %
Study system: MCH-2R (Homo sapiens, UniProt Q969V1)
Sequence (Q969V1 whole entry): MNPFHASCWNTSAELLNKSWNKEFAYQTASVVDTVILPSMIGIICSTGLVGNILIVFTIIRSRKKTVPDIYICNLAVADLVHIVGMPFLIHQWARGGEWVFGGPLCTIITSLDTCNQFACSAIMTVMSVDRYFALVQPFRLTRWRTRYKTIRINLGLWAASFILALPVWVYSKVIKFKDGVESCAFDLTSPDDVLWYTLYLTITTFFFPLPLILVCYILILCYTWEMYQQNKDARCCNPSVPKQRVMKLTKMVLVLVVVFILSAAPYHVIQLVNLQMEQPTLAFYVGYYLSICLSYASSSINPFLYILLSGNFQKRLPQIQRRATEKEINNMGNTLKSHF
Procedure text: Aequorin bioluminescence functional assay, 293AEQ17/MCH-2R cells
Type: cell-based
Set-up: expressed in transfected cells; concentration or dose not given beside the values
Reported conditions: human MCH = 100
Residues, ends and D or L forms follow the SMILES beside them.
Give the figure together with its unit, number first.

Input line: Look up MCH-2R Activation % with MCH-2R (Homo sapiens, UniProt Q969V1) for this molecule: CSCC[C@@H]1NC(=O)[C@@H](NC(=O)[C@@H](CCCCN)NC(C)=O)CSSC[C@@H](C(N)=O)NC(=O)[C@@H]2CCCN2C(=O)[C@H](CCCNC(=N)N)NC(=O)[C@H](Cc2ccc(O)cc2)NC(=O)[C@H](C(C)C)NC(=O)[C@H](CCCNC(=N)N)NC(=O)CNC(=O)[C@H](CC(C)C)NC1=O [SEQ. ID. NO. 13]
Output line: 55%

Input line: Look up MCH-2R Activation % with MCH-2R (Homo sapiens, UniProt Q969V1) for this molecule: CSCC[C@@H]1NC(=O)[C@@H](NC(=O)[C@@H](CCCNC(N)=O)NC(C)=O)CSSC[C@@H](C(N)=O)NC(=O)[C@@H]2CCCN2C(=O)[C@H](CCCNC(=N)N)NC(=O)[C@H](Cc2ccc(O)cc2)NC(=O)[C@H](C(C)C)NC(=O)[C@H](CCCNC(=N)N)NC(=O)CNC(=O)[C@H](CC(C)C)NC1=O [SEQ. ID. NO. 14]
Output line: 68%

Input line: Look up MCH-2R Activation % with MCH-2R (Homo sapiens, UniProt Q969V1) for this molecule: CSCC[C@@H]1NC(=O)[C@@H](NC(=O)[C@H](CCCNC(=N)N)NC(C)=O)CSSC[C@@H](C(N)=O)NC(=O)[C@@H]2CCCN2C(=O)[C@H](CCCNC(=N)N)NC(=O)[C@H](Cc2ccc(O)cc2)NC(=O)[C@H](C(C)C)NC(=O)[C@H](CCCNC(=N)N)NC(=O)[C@H](C)NC(=O)[C@H](CC(C)C)NC1=O [SEQ. ID. NO. 16] (HELM PEPTIDE1{[ac].R.C.M.L.A.R.V.Y.R.P.C.[am]}$PEPTIDE1,PEPTIDE1,3:R3-12:R3$$$V2.0)
Output line: 102%

Input line: Look up MCH-2R Activation % with MCH-2R (Homo sapiens, UniProt Q969V1) for this molecule: CSCC[C@@H]1NC(=O)[C@@H](NC(=O)[C@H](N)CCCNC(=N)N)CSSC[C@@H](C(N)=O)NC(=O)[C@@H]2CCCN2C(=O)[C@H](CCCNC(=N)N)NC(=O)[C@H](Cc2ccc(O)cc2)NC(=O)[C@H](C(C)C)NC(=O)[C@H](CCCNC(=N)N)NC(=O)CNC(=O)[C@H](CC(C)C)NC1=O [SEQ. ID. NO. 4]
Output line: 83%

Input line: Look up MCH-2R Activation % with MCH-2R (Homo sapiens, UniProt Q969V1) for this molecule: CSCC[C@@H]1NC(=O)[C@@H](NC(=O)[C@H](CCCNC(=N)N)NC(C)=O)CSSC[C@@H](C(N)=O)NC(=O)[C@@H]2CCCN2C(=O)[C@H](CCCNC(=N)N)NC(=O)[C@H](Cc2ccc(O)cc2)NC(=O)[C@H](C(C)C)NC(=O)[C@H](CCCNC(=N)N)NC(=O)[C@H](CCCNC(=N)N)NC(=O)[C@H](CC(C)C)NC1=O [SEQ. ID. NO. 23] (HELM PEPTIDE1{[ac].R.C.M.L.R.R.V.Y.R.P.C.[am]}$PEPTIDE1,PEPTIDE1,3:R3-12:R3$$$V2.0)
Output line: 38%

Input line: Look up MCH-2R Activation % with MCH-2R (Homo sapiens, UniProt Q969V1) for this molecule: CSCC[C@@H]1NC(=O)[C@@H](NC(=O)[C@H](CCCNC(=N)N)NC(C)=O)CSSC[C@@H](C(N)=O)NC(=O)[C@@H]2CCCN2C(=O)[C@H](CCCNC(=N)N)NC(=O)[C@H](Cc2ccc(O)cc2)NC(=O)[C@H](C(C)C)NC(=O)[C@H](CCCNC(=N)N)NC(=O)[C@H](Cc2ccccc2)NC(=O)[C@H](CC(C)C)NC1=O [SEQ. ID. NO. 20] (HELM PEPTIDE1{[ac].R.C.M.L.F.R.V.Y.R.P.C.[am]}$PEPTIDE1,PEPTIDE1,3:R3-12:R3$$$V2.0)
Output line: 88%

Input line: Look up MCH-2R Activation % with MCH-2R (Homo sapiens, UniProt Q969V1) for this molecule: CSCC[C@@H]1NC(=O)[C@@H](NC(=O)[C@H](CCCNC(=N)N)NC(C)=O)CSSC[C@@H](C(N)=O)NC(=O)[C@@H]2CCCN2C(=O)[C@H](CCCNC(=N)N)NC(=O)[C@H](Cc2ccc(O)cc2)NC(=O)[C@H](C(C)C)NC(=O)[C@H](CCCNC(=N)N)NC(=O)[C@H](CC(C)C)NC(=O)[C@H](CC(C)C)NC1=O [SEQ. ID. NO. 17]
Output line: 74%

Input line: Look up MCH-2R Activation % with MCH-2R (Homo sapiens, UniProt Q969V1) for this molecule: CSCC[C@@H]1NC(=O)[C@@H](NC(=O)[C@@H](CCCNC(=N)N)NC(C)=O)CSSC[C@@H](C(N)=O)NC(=O)[C@@H]2CCCN2C(=O)[C@H](CCCNC(=N)N)NC(=O)[C@H](Cc2ccc(O)cc2)NC(=O)[C@H](C(C)C)NC(=O)[C@H](CCCNC(=N)N)NC(=O)[C@H](CCC(N)=O)NC(=O)[C@H](CC(C)C)NC1=O [SEQ. ID. NO. 30] (HELM PEPTIDE1{[ac].[dR].C.M.L.Q.R.V.Y.R.P.C.[am]}$PEPTIDE1,PEPTIDE1,3:R3-12:R3$$$V2.0)
Output line: 11%

Input line: Look up MCH-2R Activation % with MCH-2R (Homo sapiens, UniProt Q969V1) for this molecule: CSCC[C@@H]1NC(=O)[C@@H](NC(=O)[C@@H](CCCNC(=N)N)NC(C)=O)CSSC[C@@H](C(N)=O)NC(=O)[C@@H]2CCCN2C(=O)[C@H](CCCNC(=N)N)NC(=O)[C@H](Cc2ccc(O)cc2)NC(=O)[C@H](C(C)C)NC(=O)[C@H](CCCNC(=N)N)NC(=O)[C@H](CC(N)=O)NC(=O)[C@H](CC(C)C)NC1=O [SEQ. ID. NO. 29] (HELM PEPTIDE1{[ac].[dR].C.M.L.N.R.V.Y.R.P.C.[am]}$PEPTIDE1,PEPTIDE1,3:R3-12:R3$$$V2.0)
Output line: 20%

Input line: Look up MCH-2R Activation % with MCH-2R (Homo sapiens, UniProt Q969V1) for this molecule: CSCC[C@@H]1NC(=O)[C@@H](NC(=O)[C@H](CCCNC(=N)N)NC(C)=O)CSSC[C@@H](C(N)=O)NC(=O)[C@@H]2CCCN2C(=O)[C@H](CCCNC(=N)N)NC(=O)[C@H](Cc2ccc(O)cc2)NC(=O)[C@H](C(C)C)NC(=O)[C@H](CCCNC(=N)N)NC(=O)[C@H](CC(N)=O)NC(=O)[C@H](CC(C)C)NC1=O [SEQ. ID. NO. 25] (HELM PEPTIDE1{[ac].R.C.M.L.N.R.V.Y.R.P.C.[am]}$PEPTIDE1,PEPTIDE1,3:R3-12:R3$$$V2.0)
Output line: 86%
